- TARGET OF ASSAY: human TLR7 (Homo sapiens, UniProt Q9NYK1)
- Sequence (Q9NYK1 27-1049): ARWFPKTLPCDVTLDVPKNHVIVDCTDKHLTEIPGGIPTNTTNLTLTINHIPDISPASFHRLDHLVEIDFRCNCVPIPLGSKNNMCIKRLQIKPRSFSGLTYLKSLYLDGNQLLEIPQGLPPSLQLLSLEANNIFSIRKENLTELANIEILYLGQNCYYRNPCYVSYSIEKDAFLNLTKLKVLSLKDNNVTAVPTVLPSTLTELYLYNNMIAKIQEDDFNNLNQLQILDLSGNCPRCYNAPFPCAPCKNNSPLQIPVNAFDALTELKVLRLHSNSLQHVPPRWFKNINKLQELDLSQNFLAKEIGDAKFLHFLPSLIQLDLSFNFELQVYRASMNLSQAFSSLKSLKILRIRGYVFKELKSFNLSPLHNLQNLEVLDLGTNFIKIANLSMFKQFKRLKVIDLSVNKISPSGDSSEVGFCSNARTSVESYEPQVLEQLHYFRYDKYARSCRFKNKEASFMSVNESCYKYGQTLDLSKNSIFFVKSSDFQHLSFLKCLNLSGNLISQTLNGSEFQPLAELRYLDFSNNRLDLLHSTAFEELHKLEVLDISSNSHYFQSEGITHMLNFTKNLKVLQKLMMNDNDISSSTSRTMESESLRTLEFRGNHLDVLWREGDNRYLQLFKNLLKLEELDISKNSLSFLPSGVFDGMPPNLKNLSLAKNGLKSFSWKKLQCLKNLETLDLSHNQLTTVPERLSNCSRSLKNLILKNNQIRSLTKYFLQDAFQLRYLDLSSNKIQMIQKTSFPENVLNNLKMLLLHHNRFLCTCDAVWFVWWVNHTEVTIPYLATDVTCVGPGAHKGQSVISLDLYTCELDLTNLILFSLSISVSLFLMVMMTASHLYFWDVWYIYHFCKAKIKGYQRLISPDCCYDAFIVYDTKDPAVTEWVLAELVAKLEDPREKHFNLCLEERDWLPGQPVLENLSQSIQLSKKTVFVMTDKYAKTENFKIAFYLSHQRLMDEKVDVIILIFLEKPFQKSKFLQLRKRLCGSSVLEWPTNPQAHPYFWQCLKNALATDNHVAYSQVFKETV
- METHOD SUMMARY: TLR7 inhibition reporter assay (HEK-Blue cells, SEAP reporter, gardiquimod stimulation)
- RUN PARAMETERS: HEK-Blue cells overexpressing human TLR7, SEAP reporter, gardiquimod 7.5 μM
pIC50: −log10 of the molar value.
Would you kindly list pIC50 for each of these compounds?

# COMPOUND, TARGET OF ASSAY, RESULT
records = [
    ("Cc1cc2nnnn2cc1-c1[nH]c2ccc(C3CCN(CC(=O)N(C)C)CC3)cc2c1C(C)C [Example 314]", "human TLR7 (Homo sapiens, UniProt Q9NYK1)", "> 7.00"),
    ("Cc1ccc(-c2[nH]c3ccc(C4CCNCC4)cc3c2C(C)C)c2ncnn12 [Example 152]", "human TLR7 (Homo sapiens, UniProt Q9NYK1)", "> 7.00"),
    ("CCc1c(-c2ccnc3[nH]ccc23)[nH]c2ccc(C3CCNCC3)cc12 [Example 236]", "human TLR7 (Homo sapiens, UniProt Q9NYK1)", "> 7.00"),
    ("Cc1nnn2ccc(-c3[nH]c4ccc(C5CCN(CCS(C)(=O)=O)CC5)cc4c3C(C)C)cc12 [Example 793]", "human TLR7 (Homo sapiens, UniProt Q9NYK1)", "> 7.00"),
    ("CC(C)c1c(-c2nc3c(s2)CNCC3)[nH]c2ccc(C3CCNCC3)cc12 [Example 208]", "human TLR7 (Homo sapiens, UniProt Q9NYK1)", "4.30 to 6.00"),
]

Please look at the items below and tell me pIC50 for each one, in order.
1. CC(C)c1c(-c2ccc(Cl)c3[nH]ncc23)[nH]c2ccc(C3CCNCC3)cc12 [Example 106]
2. CCc1c(-c2ccnc3[nH]ncc23)[nH]c2ccc(C3CCNCC3O)cc12 (stereo not shown) [Example 175]

(A)
["6.00 to 7.00", "6.00 to 7.00"]

====

- TARGET OF ASSAY: human TLR8 (Homo sapiens)
- Construct: host or cells: HEK-Blue cells (HEK293-derived reporter line)
- METHOD SUMMARY: TLR8 inhibition reporter assay (HEK-Blue cells, SEAP reporter, R848 stimulation)
- Format: cell-based
- RUN PARAMETERS: HEK-Blue cells overexpressing human TLR8, SEAP reporter, R848 15.9 μM
QUANTITY MEASURED: IC50

Guide cases for IC50, answers given:
# COMPOUND, IC50
measured = [
    ("CC(C)c1c(-c2cc(C(F)(F)F)c3nccn3c2)[nH]c2ccc(C3CCN(C(=O)CN(C)C)CC3)cc12 [Example 507]", "< 100 nM"),
    ("CC(C)c1c(-c2ccnc3[nH]ncc23)[nH]c2ccc(C3CCN(Cc4ccccn4)CC3)cc12 [Example 866]", "< 100 nM"),
    ("Cc1cc(-c2[nH]c3ccc(C4CCN(CC(=O)N(C)C)CC4)cc3c2C(C)C)cn2nnnc12 [Example 313]", "< 100 nM"),
    ("CCCN1CCC(c2ccc3[nH]c(-c4ccc5c(c4)COC5=O)c(C(C)C)c3c2)CC1 [Example 953]", "< 100 nM"),
    ("Cc1c(-c2ccnc3[nH]ccc23)[nH]c2ccc(C3CCN(C4CCN(C)CC4)CC3)cc12 [Example 810]", "< 100 nM"),
]

Quick one: give me IC50 for each item below, same order please.
1. Cc1c(-c2ccnc3[nH]cc(N)c23)[nH]c2ccc(C3CCNCC3)cc12 [Example 211]
2. CCc1c(-c2cnc3cncc(OC)n23)[nH]c2ccc(C3CCNCC3)cc12 [Example 25]
3. CC(C)c1c(-c2cc(CO)c3nnnn3c2)[nH]c2ccc(C3CCN(CC4(C)COC4)CC3)cc12 [Example 781]

(A)
1: 1000 to 50000 nM; 2: 1000 to 50000 nM; 3: < 100 nM

====

- TARGET OF ASSAY: human TLR9 (Homo sapiens, UniProt Q9NR96)
- Sequence (Q9NR96 26-1032): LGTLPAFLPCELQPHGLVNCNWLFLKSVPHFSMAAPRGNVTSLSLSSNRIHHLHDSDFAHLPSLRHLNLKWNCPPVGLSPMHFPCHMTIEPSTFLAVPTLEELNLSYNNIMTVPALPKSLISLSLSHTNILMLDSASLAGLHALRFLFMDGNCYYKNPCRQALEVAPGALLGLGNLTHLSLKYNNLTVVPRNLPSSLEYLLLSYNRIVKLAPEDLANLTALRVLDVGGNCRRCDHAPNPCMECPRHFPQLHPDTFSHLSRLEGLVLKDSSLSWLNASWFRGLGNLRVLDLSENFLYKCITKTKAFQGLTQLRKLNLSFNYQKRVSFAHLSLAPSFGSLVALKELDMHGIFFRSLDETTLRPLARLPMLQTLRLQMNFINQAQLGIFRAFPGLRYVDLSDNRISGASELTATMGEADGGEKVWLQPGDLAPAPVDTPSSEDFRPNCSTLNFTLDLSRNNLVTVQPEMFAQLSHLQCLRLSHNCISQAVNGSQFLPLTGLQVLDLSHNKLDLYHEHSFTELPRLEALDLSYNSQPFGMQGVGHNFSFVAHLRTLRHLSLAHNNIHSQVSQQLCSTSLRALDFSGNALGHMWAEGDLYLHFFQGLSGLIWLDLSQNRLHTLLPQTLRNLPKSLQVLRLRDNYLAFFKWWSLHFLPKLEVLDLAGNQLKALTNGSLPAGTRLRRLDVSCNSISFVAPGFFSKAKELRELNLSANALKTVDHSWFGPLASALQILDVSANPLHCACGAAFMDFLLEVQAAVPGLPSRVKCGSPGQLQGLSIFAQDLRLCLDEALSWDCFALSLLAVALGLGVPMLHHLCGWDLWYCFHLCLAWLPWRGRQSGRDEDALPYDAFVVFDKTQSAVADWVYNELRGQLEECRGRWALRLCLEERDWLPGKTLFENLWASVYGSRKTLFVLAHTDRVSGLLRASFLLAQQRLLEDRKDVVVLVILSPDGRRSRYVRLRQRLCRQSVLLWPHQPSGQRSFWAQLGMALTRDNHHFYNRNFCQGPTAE
- METHOD SUMMARY: TLR9 inhibition reporter assay (HEK-Blue cells, SEAP reporter, ODN2006 stimulation)
- RUN PARAMETERS: HEK-Blue cells overexpressing human TLR9, SEAP reporter, ODN2006 5 nM
pIC50: −log10 of the molar value.
Please provide measured pIC50 for the entries that follow.

# SMILES NOTATION, QUANTITY MEASURED, RESULT
data = [
    ("Cc1nc[nH]c1CN1CCC(c2ccc3[nH]c(-c4ccnc5[nH]ncc45)c(C(C)C)c3c2)CC1", "pIC50", "6.00 to 7.00"),
    ("Cc1cc(-c2[nH]c3ccc(C4CCN(C5COC5)CC4)cc3c2C(C)C)cc2[nH]c(=O)oc12", "pIC50", "4.30 to 6.00"),
    ("CC(C)c1c(-c2cnc3ccnn3c2)[nH]c2ccc(C3CCN(C(=O)C[C@H](C)O)CC3)cc12", "pIC50", "< 4.30"),
    ("Cc1ccc(-c2[nH]c3ccc(C4CCN(C(=O)CN(C)C)CC4)cc3c2C(C)C)c2ncnn12", "pIC50", "4.30 to 6.00"),
]

For each of the compounds below, note its pIC50.
1. CCCN1CCC(c2ccc3[nH]c(-c4cc(C)c5ncn(C)c5c4)c(C(C)C)c3c2)CC1
2. CNC(=O)CN1CCC(c2ccc3[nH]c(-c4ccn5cnnc5c4)c(C(C)C)c3c2)CC1
3. COc1cc(-c2[nH]c3ccc(C4CCN(CC(C)(C)O)CC4)cc3c2C(C)C)cc2nccn12

(A)
1. 6.00 to 7.00
2. 4.30 to 6.00
3. 6.00 to 7.00

====

- TARGET OF ASSAY: human TLR8 (Homo sapiens, UniProt Q9NR97)
- Sequence (Q9NR97 27-1041): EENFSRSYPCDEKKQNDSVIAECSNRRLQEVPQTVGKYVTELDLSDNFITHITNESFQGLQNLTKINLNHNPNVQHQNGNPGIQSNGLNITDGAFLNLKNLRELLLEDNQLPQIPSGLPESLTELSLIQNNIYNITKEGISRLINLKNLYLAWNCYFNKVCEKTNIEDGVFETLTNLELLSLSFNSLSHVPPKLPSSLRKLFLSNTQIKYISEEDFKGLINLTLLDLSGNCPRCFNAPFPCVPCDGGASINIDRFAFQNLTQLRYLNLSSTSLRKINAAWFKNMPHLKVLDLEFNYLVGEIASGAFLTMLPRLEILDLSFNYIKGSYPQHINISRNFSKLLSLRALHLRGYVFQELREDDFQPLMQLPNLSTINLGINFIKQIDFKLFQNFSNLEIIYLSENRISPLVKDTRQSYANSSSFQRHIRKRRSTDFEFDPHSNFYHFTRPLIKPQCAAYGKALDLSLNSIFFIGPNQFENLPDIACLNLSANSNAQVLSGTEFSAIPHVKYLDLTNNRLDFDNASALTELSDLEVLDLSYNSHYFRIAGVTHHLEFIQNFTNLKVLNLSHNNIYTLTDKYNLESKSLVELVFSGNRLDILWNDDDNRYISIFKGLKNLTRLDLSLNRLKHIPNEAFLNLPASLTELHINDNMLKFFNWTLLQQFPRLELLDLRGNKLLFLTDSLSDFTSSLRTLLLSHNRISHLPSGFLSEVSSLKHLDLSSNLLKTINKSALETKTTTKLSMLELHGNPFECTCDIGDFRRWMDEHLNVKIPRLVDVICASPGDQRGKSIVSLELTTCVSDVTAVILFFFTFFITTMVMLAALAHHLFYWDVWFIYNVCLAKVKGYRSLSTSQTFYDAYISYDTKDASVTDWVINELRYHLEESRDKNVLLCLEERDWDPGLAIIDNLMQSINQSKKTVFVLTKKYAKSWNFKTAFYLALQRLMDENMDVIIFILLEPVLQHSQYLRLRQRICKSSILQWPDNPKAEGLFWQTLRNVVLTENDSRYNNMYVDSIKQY
- METHOD SUMMARY: TLR8 inhibition reporter assay (HEK-Blue cells, SEAP reporter, R848 stimulation)
- RUN PARAMETERS: HEK-Blue cells overexpressing human TLR8, SEAP reporter, R848 15.9 μM
QUANTITY MEASURED: IC50

Some compounds with recorded IC50:
# SMILES NOTATION, IC50
records = [
    ("CNCC(=O)N1CCC(c2ccc3[nH]c(-c4cc(C)c5ncccc5c4)c(C(C)C)c3c2)CC1", "< 100 nM"),
    ("CNC(=O)CN1CCC(c2ccc3[nH]c(-c4cc(C(F)(F)F)c5nccn5c4)c(C(C)C)c3c2)CC1", "< 100 nM"),
    ("CCc1c(-c2ccn3ncnc3c2)[nH]c2ccc(C3CCNCC3)cc12", "100 to 1000 nM"),
]

Here is another compound to look at.
(Q) State, in one line, measured IC50 of Cc1cc(-c2[nH]c3ccc(C4CCN(C5CCS(=O)(=O)CC5)CC4)cc3c2C(C)C)cc2cnnn12
(A) < 100 nM
